Study target: GalNAc(b1-4)GlcNAc(b1-2)Man
Measurement protocol: glycan array binding signal (z-score within array); higher = stronger binding
Measurement context: glycan notation: IUPAC condensed, linker removed
Many of the other results were omitted from the sample, so the strongest signals are more common in it than they were.
Metric name: glycan array binding signal (z-score)
Numbers only.

AT1G15820(NC) (Arabidopsis thaliana) (protein) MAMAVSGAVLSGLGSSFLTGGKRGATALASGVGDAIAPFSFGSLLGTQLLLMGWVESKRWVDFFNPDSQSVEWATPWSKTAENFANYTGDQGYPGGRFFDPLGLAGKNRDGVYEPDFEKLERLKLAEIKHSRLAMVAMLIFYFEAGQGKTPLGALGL: -0.306
OS9 (Arabidopsis thaliana) (protein) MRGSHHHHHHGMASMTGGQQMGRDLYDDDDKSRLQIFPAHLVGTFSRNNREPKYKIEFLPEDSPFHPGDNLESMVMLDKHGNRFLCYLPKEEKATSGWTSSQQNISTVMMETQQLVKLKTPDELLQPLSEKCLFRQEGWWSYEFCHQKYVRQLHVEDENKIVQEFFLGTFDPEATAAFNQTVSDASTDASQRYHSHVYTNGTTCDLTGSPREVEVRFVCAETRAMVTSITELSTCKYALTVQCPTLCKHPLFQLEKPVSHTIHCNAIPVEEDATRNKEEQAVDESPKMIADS: 3.58

Provide glycan array binding signal (z-score) values for the following items, in order.
1. Mermaid3 (Stilbonema majum) (protein) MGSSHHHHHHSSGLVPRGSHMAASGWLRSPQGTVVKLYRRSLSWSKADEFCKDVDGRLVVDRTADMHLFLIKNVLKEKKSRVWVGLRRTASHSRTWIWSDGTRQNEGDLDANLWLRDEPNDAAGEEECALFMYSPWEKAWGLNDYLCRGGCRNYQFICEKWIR
2. CPA (Cicer arietinum) (protein) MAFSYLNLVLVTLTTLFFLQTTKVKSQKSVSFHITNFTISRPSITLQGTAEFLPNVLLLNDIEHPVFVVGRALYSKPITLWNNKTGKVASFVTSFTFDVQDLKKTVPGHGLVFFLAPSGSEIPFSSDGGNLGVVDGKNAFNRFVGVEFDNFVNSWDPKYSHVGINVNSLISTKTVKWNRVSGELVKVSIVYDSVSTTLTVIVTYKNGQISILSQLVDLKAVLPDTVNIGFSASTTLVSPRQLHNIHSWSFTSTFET
3. HPL (Tachypleus tridentatus) (protein) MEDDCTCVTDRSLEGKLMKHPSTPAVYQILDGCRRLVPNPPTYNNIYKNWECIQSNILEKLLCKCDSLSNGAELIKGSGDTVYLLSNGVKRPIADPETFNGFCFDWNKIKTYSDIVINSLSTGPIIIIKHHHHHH
4. DrGRIFIN (Danio rerio), Q6DGJ1 (protein) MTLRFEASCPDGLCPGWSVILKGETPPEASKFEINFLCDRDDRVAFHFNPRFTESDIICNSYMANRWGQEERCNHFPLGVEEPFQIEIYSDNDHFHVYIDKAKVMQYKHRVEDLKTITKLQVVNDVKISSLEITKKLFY

[-0.708, 1.55, -0.379, -0.129]
